Reference for the values: ChEMBL document CHEMBL4627255

Species on record: Homo sapiens
ASSAY_METHOD_TEXT: Selectivity index, ratio of IC50 for JAK1 (unknown origin) to IC50 for TYK2 (unknown origin)
We begin with a simple list: items and their reported Ratio IC50.

- SMILES_DATA: "N#C[C@]1(C2CC2)C(=O)N2C[C@H]1COCC(=O)NCCCc1cccc(n1)Nc1cc2ccn1"
  Ratio IC50: 24
- SMILES_DATA: "N#C[C@]1(C2CC2)C(=O)N2C[C@H]1COC/C=C/COCc1cccc(n1)Nc1cc2ccn1"
  Ratio IC50: 30
- SMILES_DATA: "N#C[C@]1(C2CC2)C(=O)N2C[C@H]1COCC(=O)NCCc1cccc(n1)Nc1cc2ccn1"
  Ratio IC50: 40
- SMILES_DATA: "N#C[C@]1(C2CC2)C(=O)N2C[C@H]1COCCCCOCc1cccc(n1)Nc1cc2ccn1"
  Ratio IC50: 140
- SMILES_DATA: "N#C[C@]1(C2CC2)C(=O)N2C[C@H]1COCC(=O)NCc1cccc(n1)Nc1cc2ccn1"
  Ratio IC50: 23
- SMILES_DATA: "N#C[C@]1(C2CC2)C(=O)N2C[C@H]1COC/C=C\\COCc1cccc(n1)Nc1cc2ccn1"
  Ratio IC50: 110

----------
Parameter 'readout' = IC50; parameter 'system' = Tyrosine-protein kinase JAK2 (Homo sapiens, UniProt O60674).
Sequence (O60674 whole entry): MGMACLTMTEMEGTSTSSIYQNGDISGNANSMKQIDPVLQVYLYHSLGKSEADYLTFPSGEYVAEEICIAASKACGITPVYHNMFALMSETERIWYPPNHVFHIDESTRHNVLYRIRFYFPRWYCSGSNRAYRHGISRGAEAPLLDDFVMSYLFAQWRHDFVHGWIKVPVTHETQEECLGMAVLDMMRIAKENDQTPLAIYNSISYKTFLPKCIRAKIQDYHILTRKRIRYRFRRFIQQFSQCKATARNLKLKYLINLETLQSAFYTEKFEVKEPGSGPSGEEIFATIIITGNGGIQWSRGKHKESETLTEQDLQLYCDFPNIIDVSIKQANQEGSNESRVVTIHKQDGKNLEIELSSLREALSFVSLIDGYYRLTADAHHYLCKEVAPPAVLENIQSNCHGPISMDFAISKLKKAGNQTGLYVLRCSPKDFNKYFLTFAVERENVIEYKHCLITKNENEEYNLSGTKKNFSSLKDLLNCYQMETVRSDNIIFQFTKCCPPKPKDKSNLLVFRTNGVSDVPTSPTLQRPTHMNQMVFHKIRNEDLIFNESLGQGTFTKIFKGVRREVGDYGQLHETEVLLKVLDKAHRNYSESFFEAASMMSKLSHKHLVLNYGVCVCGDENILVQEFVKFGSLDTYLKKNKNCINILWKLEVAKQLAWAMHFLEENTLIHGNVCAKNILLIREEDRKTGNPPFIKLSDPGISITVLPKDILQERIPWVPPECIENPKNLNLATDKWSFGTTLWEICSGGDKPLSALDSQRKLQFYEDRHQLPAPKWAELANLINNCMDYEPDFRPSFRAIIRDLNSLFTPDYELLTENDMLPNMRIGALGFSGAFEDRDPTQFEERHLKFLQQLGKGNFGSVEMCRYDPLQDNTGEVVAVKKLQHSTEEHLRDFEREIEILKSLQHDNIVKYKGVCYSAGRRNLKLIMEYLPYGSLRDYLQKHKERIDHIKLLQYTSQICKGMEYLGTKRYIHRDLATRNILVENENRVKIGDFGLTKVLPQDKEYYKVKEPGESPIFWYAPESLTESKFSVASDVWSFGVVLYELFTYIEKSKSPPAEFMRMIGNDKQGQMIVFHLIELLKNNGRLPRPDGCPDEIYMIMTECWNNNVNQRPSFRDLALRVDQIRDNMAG
READOUT_NAME: IC50

- SMILES_DATA: "N#C[C@]1(C2CC2)C(=O)N2C[C@H]1COC/C=C\\COCc1cccc(n1)Nc1cc2ccn1"
  ASSAY_SYSTEM: "Tyrosine-protein kinase JAK2 (Homo sapiens, UniProt O60674)"
  RESULT_VALUE: "0.13 µM"
- SMILES_DATA: "N#C[C@]1(C2CC2)C(=O)N2C[C@H]1COCC(=O)NCc1cccc(n1)Nc1cc2ccn1"
  ASSAY_SYSTEM: "Tyrosine-protein kinase JAK2 (Homo sapiens, UniProt O60674)"
  RESULT_VALUE: "1 µM"

----------
ASSAY_SYSTEM: Non-receptor tyrosine-protein kinase TYK2 (Homo sapiens, UniProt P29597)
Sequence (P29597 whole entry): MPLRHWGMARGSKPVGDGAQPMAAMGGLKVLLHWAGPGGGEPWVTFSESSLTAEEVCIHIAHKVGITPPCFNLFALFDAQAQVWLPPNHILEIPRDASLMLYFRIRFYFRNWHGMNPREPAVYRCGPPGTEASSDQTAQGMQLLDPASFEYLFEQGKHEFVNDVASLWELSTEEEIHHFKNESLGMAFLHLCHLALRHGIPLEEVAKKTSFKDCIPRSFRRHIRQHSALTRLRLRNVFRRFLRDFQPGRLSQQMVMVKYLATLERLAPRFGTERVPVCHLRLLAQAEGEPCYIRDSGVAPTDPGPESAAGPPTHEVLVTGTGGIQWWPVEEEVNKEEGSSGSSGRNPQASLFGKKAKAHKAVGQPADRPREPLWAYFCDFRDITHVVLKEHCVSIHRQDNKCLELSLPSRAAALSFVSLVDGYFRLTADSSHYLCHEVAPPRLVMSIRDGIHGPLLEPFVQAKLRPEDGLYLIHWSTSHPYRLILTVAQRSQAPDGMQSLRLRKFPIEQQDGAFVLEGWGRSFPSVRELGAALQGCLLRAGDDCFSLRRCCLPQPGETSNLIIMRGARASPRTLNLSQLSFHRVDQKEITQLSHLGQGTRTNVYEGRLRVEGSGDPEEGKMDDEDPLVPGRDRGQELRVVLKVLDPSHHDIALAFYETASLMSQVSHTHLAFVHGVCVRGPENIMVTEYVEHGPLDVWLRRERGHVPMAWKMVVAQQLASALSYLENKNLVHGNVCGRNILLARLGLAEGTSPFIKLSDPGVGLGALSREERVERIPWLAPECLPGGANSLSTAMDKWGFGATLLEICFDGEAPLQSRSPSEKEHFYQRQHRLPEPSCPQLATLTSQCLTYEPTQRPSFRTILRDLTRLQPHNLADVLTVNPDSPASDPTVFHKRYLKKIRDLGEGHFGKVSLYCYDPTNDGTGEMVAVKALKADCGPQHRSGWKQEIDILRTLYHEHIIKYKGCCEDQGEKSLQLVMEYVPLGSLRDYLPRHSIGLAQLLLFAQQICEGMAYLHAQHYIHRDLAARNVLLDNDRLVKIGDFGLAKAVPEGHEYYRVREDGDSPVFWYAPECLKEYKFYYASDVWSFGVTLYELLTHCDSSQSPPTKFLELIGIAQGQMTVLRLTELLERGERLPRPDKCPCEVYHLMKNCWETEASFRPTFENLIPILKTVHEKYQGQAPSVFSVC
ASSAY_METHOD_TEXT: Inhibition of TYK2 in human Jurkat cells by luciferase reporter gene assay
Format: cell-based
We begin with a simple list: items and their reported IC50.

- SMILES_DATA: "N#C[C@]1(C2CC2)C(=O)N2C[C@H]1COC/C=C/COCc1cccc(n1)Nc1cc2ccn1"
  READOUT_UNITS: "µM"
  IC50: 0.44
- SMILES_DATA: "N#C[C@]1(C2CC2)C(=O)N2C[C@H]1COCC(=O)NCCCc1cccc(n1)Nc1cc2ccn1"
  READOUT_UNITS: "µM"
  IC50: 0.18
- SMILES_DATA: "N#C[C@]1(C2CC2)C(=O)N2C[C@H]1COC/C=C\\COCc1cccc(n1)Nc1cc2ccn1"
  READOUT_UNITS: "µM"
  IC50: 0.26
- SMILES_DATA: "N#C[C@]1(C2CC2)C(=O)N2C[C@H]1COCC(=O)NCc1cccc(n1)Nc1cc2ccn1"
  READOUT_UNITS: "µM"
  IC50: 1.3
- SMILES_DATA: "N#C[C@]1(C2CC2)C(=O)N2C[C@H]1COCC(=O)NCCc1cccc(n1)Nc1cc2ccn1"
  READOUT_UNITS: "µM"
  IC50: 0.21
- SMILES_DATA: "N#C[C@]1(C2CC2)C(=O)N2C[C@H]1COCCCCOCc1cccc(n1)Nc1cc2ccn1"
  READOUT_UNITS: "µM"
  IC50: 0.21

----------
ASSAY_SYSTEM: Non-receptor tyrosine-protein kinase TYK2 (Homo sapiens)
ASSAY_METHOD_TEXT: Inhibition of TYK2 (unknown origin)
We begin with a simple list: items and their reported IC50.

- SMILES_DATA: "N#C[C@]1(C2CC2)C(=O)N2C[C@H]1COCC(=O)NCc1cccc(n1)Nc1cc2ccn1"
  IC50: "130 nM"
- SMILES_DATA: "N#C[C@]1(C2CC2)C(=O)N2C[C@H]1COC/C=C\\COCc1cccc(n1)Nc1cc2ccn1"
  IC50: "5.2 nM"
- SMILES_DATA: "N#C[C@]1(C2CC2)C(=O)N2C[C@H]1COCC(=O)NCCCc1cccc(n1)Nc1cc2ccn1"
  IC50: "5.5 nM"
